system: LOC_OS01G21960-cb002; assay: thermal shift delta Tm vs DMSO control; higher = stronger stabilization (binding); details: 12.5 µM; protein concentration 2 µM;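 note: purified Escherichia coli-expressed rice kinase domain construct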
I would appreciate it if you labelled entries met when thermal shift delta Tm is 1 °C or higher, otherwise not met.

Worked examples follow.
>>> label_class("CN1CCC(COc2cnc(-c3cccc(Cn4nc(-c5cccc(C#N)c5)ccc4=O)c3)nc2)CC1")
"not met"
>>> label_class("O=c1nc(N2CCOCC2)oc2c(-c3cccc4c3sc3ccccc34)cccc12")
"not met"
>>> label_class("O=C1CCc2c(Oc3ccc4c(c3)[C@@H]3[C@H](O4)[C@H]3c3nc4cc(C(F)(F)F)ccc4[nH]3)ccnc2N1 [Lifirafenib (BGB-283)]")
"met"
>>> label_class("COc1cc(N2CCC(N3CCN(C)CC3)CC2)ccc1Nc1ncnc(Nc2ccccc2S(=O)(=O)C(C)C)n1")
"not met"

Inquiry: thermal shift delta Tm >= 1 °C for Nc1cc(C(F)(F)F)c(-c2cc(N3CCOCC3)nc(N3CCOCC3)n2)cn1 [Buparlisib (BKM120, NVP-BKM120)] ?
Reply text: not met

Inquiry: Then this compound: CN1CC[C@H](c2c(O)cc(O)c3c(=O)cc(-c4ccccc4Cl)oc23)[C@H](O)C1 [Flavopiridol (Alvocidib)]
Reply text: met

Inquiry: Then this compound: CCN(CC)CCNC(=O)c1c(C)[nH]c(/C=C2\C(=O)Nc3ccc(F)cc32)c1C [Sunitinib]
Reply text: met

Inquiry: Then this compound: "COc1cc(-c2cc(-c3ccc(N4CCNCC4)cc3)cnc2C)cc(OC)c1OC"
Reply text: not met

Inquiry: Then this compound: "CCOc1cc(N2CCC(O)CC2)ccc1Nc1ncc2c(n1)N(C)c1ccccc1C(=O)N2C"
Reply text: not met

Inquiry: Then this compound: CC(C)(O)CNc1ncc(-c2ccnc(Nc3ccncc3)n2)c(CC2CC2)n1 [VPS34 inhibitor 1 (Compound 19, PIK-III analogue)]
Reply text: not met

Inquiry: Then this compound: "Cc1cc2c(F)c(Oc3ncnn4cc(OC[C@@H](C)OC(=O)[C@H](C)N)c(C)c34)ccc2[nH]1"
Reply text: not met

Inquiry: Then this compound: "Cc1nc(Nc2n[nH]c3c2CN(C(=O)N[C@H](CN(C)C)c2ccccc2)C3(C)C)c2sccc2n1"
Reply text: met

----------
tested on: LOC_OS01G60330-cb001; assay: thermal shift delta Tm vs DMSO control; higher = stronger stabilization (binding); conditions: 12.5 µM; protein concentration 2 µM
MEASURED PARAMETER: thermal shift delta Tm (°C)
Lab book: enter the figure in °C, no units written.

These recorded examples may help you get a feel for the data.
>>> readout_number("CNc1nc(Nc2cnn([C@H]3CCN(C4COC4)C[C@@H]3F)c2Cl)ncc1C(F)(F)F")
2.09
>>> readout_number("OC(c1cc(-c2ccc(Cl)cc2)nc2ccccc12)C1CCCCN1 (stereo not drawn)")
1.32
>>> readout_number("O=C1CCc2c(Oc3ccc4c(c3)[C@@H]3[C@H](O4)[C@H]3c3nc4cc(C(F)(F)F)ccc4[nH]3)ccnc2N1")
3.33
>>> readout_number("COc1ccc(-c2ccc3c(N4CCOC[C@@H]4C)nc(N4CCOC[C@@H]4C)nc3n2)cc1CO")
0.93
>>> readout_number("Cc1cc(C(=O)NOCCO)c(Nc2ccc(I)cc2F)n(C)c1=O")
0.4

Inquiry: Which thermal shift delta Tm reading was recorded for the compound "CCN1CCN(Cc2ccc(C(=O)Nc3ccc(C)c(Oc4ccc5c(c4)CC(=O)N5)c3)cc2C(F)(F)F)CC1" ?
Reply text: 1.36

Inquiry: Then this compound: "CO[C@@H](C(=O)N1Cc2[nH]nc(NC(=O)c3ccc(N4CCN(C)CC4)cc3)c2C1)c1ccccc1"
Reply text: 1.12

Inquiry: Then this compound: C=CC(=O)N1CCC(Oc2cc3c(Nc4ccc(Cl)c(Cl)c4F)ncnc3cc2OC)CC1 [Poziotinib (HM781-36B)]
Reply text: -0.17

----------
thermal shift delta Tm by entry:
system: LOC_OS04G57630-cb004; assay: thermal shift delta Tm vs DMSO control; higher = stronger stabilization (binding); conditions: 12.5 µM; protein concentration 2 µM
Provide the measurement as a number trailed by its unit.

>>> result("CN(C)C/C=C/C(=O)Nc1cc2c(Nc3ccc(F)c(Cl)c3)ncnc2cc1O[C@H]1CCOC1 [Afatinib (BIBW2992) Dimaleate]")
"1.02 °C"
>>> result("O=c1[nH]nc(Sc2ncc([N+](=O)[O-])s2)n1-c1ccc2c(c1)OCCO2")
"-1.46 °C"
>>> result("CO[C@H]1C[C@@H]2CC[C@@H](C)[C@@](O)(O2)C(=O)C(=O)N2CCCC[C@H]2C(=O)O[C@H]([C@H](C)C[C@@H]2CC[C@@H](OP(C)(C)=O)[C@H](OC)C2)CC(=O)[C@H](C)/C=C(\\C)[C@@H](O)[C@@H](OC)C(=O)[C@H](C)C[C@H](C)/C=C/C=C/C=C/1C")
"-0.31 °C"

Inquiry: Which thermal shift delta Tm reading was recorded for the compound OC(c1cc(-c2ccc(Cl)cc2)nc2ccccc12)C1CCCCN1 (stereo unspecified) ?
Reply text: 0.38 °C

Inquiry: Then this compound: "FC(F)(F)c1ccc(/C=C/c2nc(COc3ccc(CCCCn4ccnn4)cc3)co2)cc1"
Reply text: 0.31 °C

Inquiry: Then this compound: "COc1ccc(S(=O)(=O)N(C(C)=O)c2ccccc2/C=C/c2cc[n+]([O-])cc2)cc1"
Reply text: 0.43 °C

----------
tested on: LOC_OS02G08530-cb003; assay: thermal shift delta Tm vs DMSO control; higher = stronger stabilization (binding); conditions: 12.5 µM; protein concentration 2 µM
thermal shift delta Tm by entry:
Provide the measurement as a number trailed by its unit.

>>> result("O=C1NC(=O)/C(=C/c2ccc3nccc(-c4ccncc4)c3c2)S1")
"0.62 °C"
>>> result("O=C(Nc1c[nH]nc1-c1nc2ccc(CN3CCOCC3)cc2[nH]1)NC1CC1")
"3.3 °C"
>>> result("C[C@H](NC(=O)/C(C#N)=C/c1cccc(Br)n1)c1ccccc1")
"0.47 °C"
>>> result("C=CCc1ccc(O)c(-c2ccc(O)c(CC=C)c2)c1")
"1.59 °C"
>>> result("COc1ccc2[nH]cc(/C=C3\\C(=O)Nc4ccc(NC(=O)CCN5CCCCC5)cc43)c2c1")
"1.82 °C"
>>> result("CN1CCN(c2cccc(Nc3nc4c(-c5ccc(S(C)(=O)=O)cc5)cccn4n3)c2)CC1")
"1.34 °C"
>>> result("C[C@@H]1CN(CC(=O)Nc2ccc3c(c2)Cc2cccc(-c4cc(=O)cc(N5CCOCC5)o4)c2S3)C[C@H](C)O1")
"0.73 °C"
>>> result("O=c1ncn2nc(Sc3ccc(F)cc3F)ccc2c1-c1c(Cl)cccc1Cl")
"0.67 °C"

Would you kindly look at the next entry?
Inquiry: Which thermal shift delta Tm reading was recorded for the compound "Cc1cn(-c2cc(NC(=O)c3ccc(C)c(Nc4nccc(-c5cnccn5)n4)c3)cc(C(F)(F)F)c2)cn1" ?
Reply text: 0.67 °C

----------
test system: LOC_OS02G45750-cb003; test: thermal shift delta Tm vs DMSO control; higher = stronger stabilization (binding); settings: 12.5 µM; protein concentration 2 µM
Where a name gives a salt, the structure may show the parent alone.
I would appreciate it if you labelled entries YES when thermal shift delta Tm is 0.5 °C or higher, otherwise NO.

>>> label_class("CS(=O)(=O)CCNCc1ccc(-c2ccc3ncnc(Nc4ccc(OCc5cccc(F)c5)c(Cl)c4)c3c2)o1 [Lapatinib]")
"NO"

Inquiry: thermal shift delta Tm >= 0.5 °C for COc1cc2c3cc1Oc1c(OC)c(OC)cc4c1[C@@H](Cc1ccc(O)c(c1)Oc1ccc(cc1)C[C@@H]3N(C)CC2)N(C)CC4 [Berbamine (dihydrochloride)] ?
Reply text: NO

Inquiry: Then this compound: "O=c1cc(-c2cccc3c2Sc2ccccc2S3)oc(N2CCOCC2)c1"
Reply text: NO

Inquiry: Then this compound: "C=CC(=O)Nc1cccc(Nc2nc(Nc3ccc(OCCOC)cc3)ncc2F)c1"
Reply text: NO

Inquiry: Then this compound: CNC(=O)c1cc(Oc2ccc(NC(=O)Nc3ccc(Cl)c(C(F)(F)F)c3)cc2)ccn1 [Sorafenib]
Reply text: YES

Inquiry: Then this compound: "COc1ccc(/C=C/C(=O)C2(C(=O)/C=C/c3ccc(OC)c(OC)c3)CCCCC2)cc1OC"
Reply text: YES

----------
system: LOC_OS01G48390-cb002; assay: thermal shift delta Tm vs DMSO control; higher = stronger stabilization (binding); conditions: 12.5 µM; protein concentration 2 µM
MEASURED PARAMETER: thermal shift delta Tm (°C)
Lab book: enter the figure in °C, no units written.

>>> readout_number("CONC(=O)c1ccccc1Nc1cc(Nc2cc(C)nn2C(C)C)ncc1Cl")
1.49
>>> readout_number("COc1cc(OC)cc(-c2cc3cnc(N)nc3nc2NC(=O)NC(C)(C)C)c1")
0.85
>>> readout_number("C#Cc1cccc(Nc2ncnc3cc(OCCOC)c(OCCOC)cc23)c1")
0.85
>>> readout_number("CN1CCC(Nc2nc(Nc3ccc(Oc4ccccc4)cc3)c3c(=O)[nH]cc(Br)c3n2)CC1")
2.51
>>> readout_number("N#Cc1cnc(Nc2cc(NC[C@H]3CNCCO3)c(C(F)(F)F)cn2)cn1")
2.58
>>> readout_number("COc1ccc2c(c1)[C@]1(C[C@H]1c1ccc3c(/C=C/c4ccc(CN5C[C@@H](C)O[C@@H](C)C5)cc4)n[nH]c3c1)C(=O)N2")
1.77

Inquiry: Which thermal shift delta Tm reading was recorded for the compound "CCn1c(=O)c(-c2ccc(Cl)cc2Cl)cc2cnc(Nc3ccc(N4CCNCC4)c(F)c3)nc21" ?
Reply text: 2.05

Inquiry: Then this compound: "CCN(CC)CCNC(=O)c1c(C)[nH]c(/C=C2\C(=O)Nc3ccc(-c4csc(-c5ccccc5)n4)cc32)c1C"
Reply text: -0.28

Inquiry: Then this compound: "CCc1cc(Nc2nccc(-c3c(-c4ccc(OC)c(C(=O)Nc5c(F)cccc5F)c4)nc4ccccn34)n2)c(OC)cc1N1CCC(N2CCN(S(C)(=O)=O)CC2)CC1"
Reply text: 0.41

Inquiry: Then this compound: "Cc1c[nH]c2nc(Nc3ccc(N4CCN(C)CC4)c(F)c3)nc(-c3cccc(CC#N)c3)c12"
Reply text: 5.5

Inquiry: Then this compound: "CCN1CCN(Cc2ccc(Nc3ncc(F)c(-c4cc(F)c5nc(C)n(C(C)C)c5c4)n3)nc2)CC1"
Reply text: 1.47

Inquiry: Then this compound: "COc1cc2nccc(Oc3ccc(NC(=O)Nc4cc(C)on4)c(Cl)c3)c2cc1OC"
Reply text: 1.22

Inquiry: Then this compound: "COc1ncc(-c2cc(-c3ncc(CN4C[C@@H](C)O[C@@H](C)C4)o3)c3cn[nH]c3c2)cc1NS(C)(=O)=O"
Reply text: 0.01

Inquiry: Then this compound: "CN1c2ccccc2C(=O)Nc2cnc(Nc3ccc(N4CCC(O)CC4)cc3)nc21"
Reply text: 0.29
